System: A549
measurement notes: NCI tumour cell line growth inhibition, 48 h
The source made the active and inactive calls. Cut-off read from the data, not from the text of the source: active = GI50 up to about 1.1 µM and inactive = higher.
Answer each item with its documented GI50.

Qu. If you can, please state the reported GI50 value of "COc1ccccc1OCC(=N/NC(=O)c1ccncc1)/N=C/c1ccncc1" .
Ans. > 100 µM (inactive)

Qu. If you can, please state the reported GI50 value of O=C1Sc2ccccc2C(=O)N2CSCC12 (centres undefined) .
Ans. > 100 µM (inactive)

Qu. If you can, please state the reported GI50 value of "CCN(CC)CC(=O)/C=C/c1ccc(C)cc1" .
Ans. 27 µM (inactive)

Qu. If you can, please state the reported GI50 value of "Cc1ccc(-n2cc(-c3ccc(Cl)cc3)c(C#N)c2N)cc1" .
Ans. 17.4 µM (inactive)

Qu. If you can, please state the reported GI50 value of "CCN(CC)CCNc1ccc2ncn3c4c(OC)ccc(O)c4c(=O)c1c23" .
Ans. 2.86 µM (inactive)

Qu. If you can, please state the reported GI50 value of "COC(=O)c1c(C#N)c(N)nc2c1CCC2" .
Ans. > 100 µM (inactive)

Qu. If you can, please state the reported GI50 value of O=C1CC(C(O)(C(F)(F)F)C(F)(F)Cl)CCC1C(O)(C(F)(F)F)C(F)(F)Cl (centres undefined) .
Ans. > 10 µM (inactive)

Qu. If you can, please state the reported GI50 value of "COc1ccc2[nH]c3c(c2c1)[C@H](C)C[C@@H]1C(=O)N(c2ccccc2)C(=O)[C@H]31" .
Ans. 27.4 µM (inactive)

Qu. If you can, please state the reported GI50 value of "[Se]=P(c1ccccc1)(c1ccccc1)c1ccc(C(c2ccccc2)=P(c2ccccc2)(c2ccccc2)c2ccccc2)cc1" .
Ans. 1.44 µM (inactive)

* * *

Answer each item with its documented GI50.
System: RXF 393
measurement notes: NCI tumour cell line growth inhibition, 48 h
The source made the active and inactive calls. Cut-off read from the data, not from the text of the source: active = GI50 up to about 1.1 µM and inactive = higher.

Qu. If you can, please state the reported GI50 value of "Cc1ccc(C(=O)/C=C/N2CCN(c3cccc(C(F)(F)F)c3)CC2)cc1" .
Ans. 15.7 µM (inactive)

Qu. If you can, please state the reported GI50 value of O=c1[nH]c(=O)n(C2OC(CO)C(O)C2O)c2ccsc12 (stereo not given) .
Ans. > 100 µM (inactive)

Qu. If you can, please state the reported GI50 value of "O=C1c2ccccc2C(=O)c2c(NCCNCCO)ccc(O)c21" .
Ans. 2.15 µM (inactive)

Qu. If you can, please state the reported GI50 value of COC(=O)N/N=C(/CCN1CCCC1)CC(c1ccccc1)c1c(O)c2ccccc2oc1=O (stereo not given) .
Ans. > 100 µM (inactive)

Qu. If you can, please state the reported GI50 value of "COc1ccc(C(c2c(O)c3ccccc3n(-c3ccccc3)c2=O)c2c(O)c3ccccc3n(-c3ccccc3)c2=O)cc1" .
Ans. > 100 µM (inactive)

Qu. If you can, please state the reported GI50 value of "C/C(CC1SCCCS1)=C(/C)CC1SCCCS1" .
Ans. > 100 µM (inactive)

Qu. If you can, please state the reported GI50 value of "C/C(=N\Nc1nc2ccccc2s1)c1cnccn1" .
Ans. 12.7 µM (inactive)

Qu. If you can, please state the reported GI50 value of "O=C(O)c1nn[nH]c1S" .
Ans. > 100 µM (inactive)

Qu. If you can, please state the reported GI50 value of "Nc1cccc2c1-c1c(cccc1[N+](=O)[O-])C2=O" .
Ans. > 100 µM (inactive)

Qu. If you can, please state the reported GI50 value of O=c1cc2n(c(=O)[nH]1)C1OC(C(O)C1O)[C@H]2CCO (stereo not given in full) .
Ans. > 100 µM (inactive)

Cited source: ChEMBL document CHEMBL1201862
